Molecular target: T1, full length human Shh expressed on the cell surface (human, UniProt Q15465 24-462)
T1 construct: whole, on cells; also called native human Shh; Shh-FL
Experiment: flow cytometry, exhaust hybridoma supernatant 1:10, 293T cells transiently expressing human Shh
Where X Geo Mean (Transients) equals or exceeds 200, the correct label is 1; where it does not, the label is 0.

binder | cat
6D7 (antibody, V domains shown, fully human XenoMouse hybridoma antibody; also called MAb 6D7) VH: QVQLQESGPGLVKPSQTLSLTCTVSGGSINSGGFYWSWIRQHPGKNLEWIGSIYYSGNTYYNPSLKSRVTISVDTSKNQFSLKLTSVTAADTAVYYCARGNDSGDYDWYFDLWGRGTLVTVSS VL: SYELTQPPSVSVSPGQTASITCSGEKLGYKYVCWYQQKPGQSPVLVIFHDNKRPSGIPERFSGSNSGNTATLTISGAQAMDEADYYCQAGDSSAVFGGGTKLTVL | 1
1A12 (antibody, V domains shown, fully human XenoMouse hybridoma antibody; tested as hybridoma supernatant and as purified antibody; also called MAb 1A12) VH: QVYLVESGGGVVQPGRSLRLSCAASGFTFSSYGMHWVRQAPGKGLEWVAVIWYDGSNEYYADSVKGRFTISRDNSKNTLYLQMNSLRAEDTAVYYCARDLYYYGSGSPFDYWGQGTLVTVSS VL: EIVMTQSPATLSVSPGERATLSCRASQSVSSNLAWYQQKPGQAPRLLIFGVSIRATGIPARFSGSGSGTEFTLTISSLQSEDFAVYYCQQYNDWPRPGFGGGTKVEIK | 1
1A5 (antibody, V domains shown, fully human XenoMouse hybridoma antibody; tested as hybridoma supernatant and as purified antibody; also called MAb 1A5) VH: EVQVVESGGDLIQPGGSLRLSCVASGFTVSSNYMNWVRQAPGKGLEWVSVIYSGGNTYYADSVKGRFTISRDNSKNTLYLQMNSLRAEDTAVYYCARDSSVVVGLGYFDLWGRGTLVTVSS VL: SYELTQPPSVSVSPGQTASITCSGDKLGANYASWYQQKPGQSPVLVIFQDTKRPSGIPERFSGSNSGNTATLTISGTQAMDEADYYCQAWDFSTVIFGGGTKLTVL | 1
1H10 (antibody, V domains shown, fully human XenoMouse hybridoma antibody; tested as hybridoma supernatant and as purified antibody; also called MAb 1H10) VH: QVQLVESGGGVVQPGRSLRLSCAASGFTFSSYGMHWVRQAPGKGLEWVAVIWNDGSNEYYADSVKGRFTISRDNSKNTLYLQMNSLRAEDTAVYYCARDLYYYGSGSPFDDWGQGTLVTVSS VL: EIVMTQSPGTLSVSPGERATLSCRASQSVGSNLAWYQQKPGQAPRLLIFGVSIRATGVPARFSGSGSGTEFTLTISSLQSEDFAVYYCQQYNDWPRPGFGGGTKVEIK | 0
1G1 (antibody, V domains shown, fully human XenoMouse hybridoma antibody; also called MAb 1G1) VH: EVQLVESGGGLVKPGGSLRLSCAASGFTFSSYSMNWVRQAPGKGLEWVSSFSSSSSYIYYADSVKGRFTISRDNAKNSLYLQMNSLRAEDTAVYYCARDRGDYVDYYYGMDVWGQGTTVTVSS VL: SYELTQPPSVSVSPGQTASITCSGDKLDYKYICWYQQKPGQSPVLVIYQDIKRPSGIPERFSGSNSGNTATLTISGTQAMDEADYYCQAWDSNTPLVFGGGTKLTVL | 0

I'd appreciate it if you could say whether 1H12 (antibody, V domains shown, fully human XenoMouse hybridoma antibody; tested as hybridoma supernatant and as purified antibody; also called MAb 1H12) VH: QVQLVQSGAEVKKPGASVKVSCKASGYTFTGYYMHWVRQAPGQGLEWVGWFNPNSGGTNCAQKFQGRVTMTRDTSISTAYMELSRLRSDDTAVYYCAREAVESYYYGLDVWGQGTTVTVSS VL: QSVVTQPPSASGTPGQRITISCSGSSSNIGSNYVYWYHQLPGSAPNLLIYRNNQRPSGVPDRFSGSKSGTSASLAISGLRSEDEADYFCAVWDDSLRGVVFGGGTKLTVL has X Geo Mean (Transients) at least equal to 200. 0

Where do the numbers come from? From patent US20120328625A1.
